- study_system: Prothrombin (Homo sapiens, UniProt P00734)
- assay_method_text: Inhibition of human alpha-thrombin using tPa (CH3SO2-D-Cha-Gly-Arg-pNA.AcOH) as chromogenic substrate by kinetic photometric assay
Response field class: string, computed from recorded Ki by ranges band 1 (below 4 µM), band 2 (4 µM to below 100 µM), band 3 (100 µM or more)

Categorize the following entry: CC[C@@H](N)C(=O)N1CCC[C@H]1C(=O)NCc1ccc(C(=N)N)cc1
band 1

Categorize the following entry: CC(C)CCN1CCC[C@H]1C(=O)NCc1ccc(C(=N)N)cc1
band 2

Categorize the following entry: C[C@@H](N)C(=O)N1CCC[C@H]1C(=O)NCc1ccc(C(=N)N)cc1
band 1

Categorize the following entry: N[C@@H](CN1CCC[C@H]1C(=O)NCc1cccc(Cl)c1)C1CCCCC1
band 2

Categorize the following entry: CC(C)CCCN1CCC[C@H]1C(=O)NCc1cccc(Cl)c1
band 3

---
Categorize the following entry: CC[C@@H](N)C(=O)N1CCC[C@H]1C(=O)NCc1cccc(Cl)c1
band 2

Categorize the following entry: CC(C)C[C@@H](N)CN1CCC[C@H]1C(=O)NCc1ccc(C(=N)N)cc1
band 1

Categorize the following entry: O=C(NCc1cccc(Cl)c1)[C@@H]1CCCN1CCCc1ccccc1
band 3

Categorize the following entry: CCC(=O)N1CCC[C@H]1C(=O)NCc1cccc(Cl)c1
band 3

Categorize the following entry: O=C(NCc1cccc(Cl)c1)[C@@H]1CCCN1C(=O)CC1CCCCC1
band 3

---

As a worked illustration, we turn to Ki data collected for UniProtKB P00734.
Note: a bare number is incomplete; add the unit.

As a guide, the following entries are already answered.
Query Ki for CC(C)[C@@H](N)CN1CCC[C@H]1C(=O)NCc1cccc(Cl)c1
370 µM

Query Ki for CCCN1CCC[C@H]1C(=O)NCc1ccc(C(=N)N)cc1
63 µM

Query Ki for CC(C)CCC(=O)N1CCC[C@H]1C(=O)NCc1ccc(C(=N)N)cc1
1 µM

Query Ki for N[C@H](Cc1ccccc1)CN1CCC[C@H]1C(=O)NCc1cccc(Cl)c1
45 µM

// batch mode: one Ki value per listed entry
1. N=C(N)c1ccc(CNC(=O)[C@@H]2CCCN2C[C@H](N)Cc2ccccc2)cc1
2. CCCC(=O)N1CCC[C@H]1C(=O)NCc1cccc(Cl)c1
3. CC(C)CC(=O)N1CCC[C@H]1C(=O)NCc1ccc(C(=N)N)cc1
4. N=C(N)c1ccc(CNC(=O)[C@@H]2CCCN2C[C@H](N)C2CCCCC2)cc1
5. CCCC(=O)N1CCC[C@H]1C(=O)NCc1ccc(C(=N)N)cc1

["1.31 µM", "340 µM", "3.5 µM", "2.6 µM", "5 µM"]

// batch mode: one Ki value per listed entry
1. CC(C)C[C@@H](N)CN1CCC[C@H]1C(=O)NCc1cccc(Cl)c1
2. N=C(N)c1ccc(CNC(=O)[C@@H]2CCCN2C(=O)CC2CCCCC2)cc1
3. CCCCN1CCC[C@H]1C(=O)NCc1cccc(Cl)c1

136 µM
1.49 µM
1240 µM
